Data origin: the supplement of paper PMC10065799

molecular target: Fes (UniProt P07332); test: phosphorylation enrichment, bacterial display (enrichment ratio); higher = better substrate or ligand; peptides without Tyr show the background
Sequence (P07332 whole entry, looked up): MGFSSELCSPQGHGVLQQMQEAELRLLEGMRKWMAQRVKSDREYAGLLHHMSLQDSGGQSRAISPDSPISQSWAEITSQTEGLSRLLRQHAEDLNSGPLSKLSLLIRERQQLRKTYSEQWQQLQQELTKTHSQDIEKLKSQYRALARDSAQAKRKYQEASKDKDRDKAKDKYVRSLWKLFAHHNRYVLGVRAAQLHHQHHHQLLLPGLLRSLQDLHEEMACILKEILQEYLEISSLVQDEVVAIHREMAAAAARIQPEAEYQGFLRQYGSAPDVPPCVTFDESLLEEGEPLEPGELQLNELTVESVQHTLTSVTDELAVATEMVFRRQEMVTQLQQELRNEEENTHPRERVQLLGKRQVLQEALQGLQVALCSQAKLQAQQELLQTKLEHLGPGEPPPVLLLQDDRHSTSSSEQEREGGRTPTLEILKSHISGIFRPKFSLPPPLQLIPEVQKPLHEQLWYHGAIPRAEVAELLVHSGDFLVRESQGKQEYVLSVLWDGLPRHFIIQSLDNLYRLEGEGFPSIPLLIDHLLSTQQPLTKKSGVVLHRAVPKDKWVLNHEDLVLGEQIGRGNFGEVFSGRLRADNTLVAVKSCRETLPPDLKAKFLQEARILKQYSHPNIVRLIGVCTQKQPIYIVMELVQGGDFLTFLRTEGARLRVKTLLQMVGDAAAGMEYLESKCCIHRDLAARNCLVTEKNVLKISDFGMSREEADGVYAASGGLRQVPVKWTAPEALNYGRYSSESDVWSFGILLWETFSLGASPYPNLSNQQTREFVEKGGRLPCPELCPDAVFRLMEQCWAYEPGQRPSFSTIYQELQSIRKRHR
Parameter threshold = 0.9. Response is 1 (yes) when phosphorylation enrichment meets or exceeds it, else 0 (no).

| sequence-entry | class-name |
| --- | --- |
| LTELGYSFVTT [ACTA1_Y200_R198L] | 1 (yes) |

Asked: Form field: phosphorylation enrichment at least 0.9? Entry: MDYRSYPHEYG [RBM10_Y44_R46H]
Given back: 0 (no)

Asked: Form field: phosphorylation enrichment at least 0.9? Entry: PVDVAYRRGFF [PLEC_Y2967_YF]
Given back: 0 (no)

Asked: Form field: phosphorylation enrichment at least 0.9? Entry: FLAVGYHQPHI [IDS_Y225_K227Q]
Given back: 0 (no)

Asked: Form field: phosphorylation enrichment at least 0.9? Entry: VLPIDYFFPPQ [AR_Y552_YF]
Given back: 0 (no)

Asked: Form field: phosphorylation enrichment at least 0.9? Entry: DRLASYQDKVR [KRT12_Y139_L140Q]
Given back: 0 (no)

Asked: Form field: phosphorylation enrichment at least 0.9? Entry: DVLPEYKLQAP [KCNH2_Y388]
Given back: 0 (no)

Asked: Form field: phosphorylation enrichment at least 0.9? Entry: AVRFIYTIDGS [DCX_Y105_G100A_YF]
Given back: 1 (yes)

----------
tested on: Fer (mouse); assay: phosphorylation enrichment, bacterial display (enrichment ratio); higher = better substrate or ligand; peptides without Tyr show the background
Parameter threshold = 0.5. Response is MET when phosphorylation enrichment meets or exceeds it, else NOT MET.

| sequence-entry | class-name |
| --- | --- |
| FNDSAYNQQLI [ZPLD1_Y198_T197A_YF] | NOT MET |

Asked: Form field: phosphorylation enrichment at least 0.5? Entry: MFKPMYALFRT [HUWE1_Y4078_N4075K]
Given back: MET

Asked: Form field: phosphorylation enrichment at least 0.5? Entry: GKGGSYSQAAC [HLA-B_Y344]
Given back: NOT MET

Asked: Form field: phosphorylation enrichment at least 0.5? Entry: VGSIKYLKREW [KCNMA1_Y885_E884K]
Given back: NOT MET

Asked: Form field: phosphorylation enrichment at least 0.5? Entry: LSFSEYASVQV [SIRPA_Y496_P491L]
Given back: MET

----------
Let's look at some sequences and their measured SH2 binding enrichment.
molecular target: SHP2-C SH2; test: SH2 binding enrichment of the phosphorylated peptide, bacterial display (enrichment ratio); higher = better substrate or ligand; peptides without Tyr show the background
Reply briefly: the number, and no unit.

Study these solved cases before continuing.
| sequence-entry | SH2 binding enrichment |
| --- | --- |
| IPGVEYLVSII [TNC_Y1775] | 0.944 |
| INSLKYAYNVS [EIF2B5_Y583_I587V] | 0.636 |

Asked: # input sequence: SIFKDYFRFNF [PLA2G2D_Y85_YF] ; wanted: its SH2 binding enrichment
Given back: 1.62

Asked: # input sequence: GSCQEYTGAPY [NAXD_Y85_G81S] ; wanted: its SH2 binding enrichment
Given back: 0.764

Asked: # input sequence: SLGSPYGQPPR [PDLIM4_Y137] ; wanted: its SH2 binding enrichment
Given back: 0.563

Asked: # input sequence: LTDLRYKVSGL ; wanted: its SH2 binding enrichment
Given back: 0.498

Asked: # input sequence: AALLNYKAGRD [GRIN2A_Y737_V734L] ; wanted: its SH2 binding enrichment
Given back: 0.762

----------
test system: Fer (mouse); test: phosphorylation enrichment, bacterial display (enrichment ratio); higher = better substrate or ligand; peptides without Tyr show the background
Let's look at some sequences and their measured phosphorylation enrichment.

Study these solved cases before continuing.
| sequence-entry | phosphorylation enrichment |
| --- | --- |
| SHPSSYTTHPQ [NIPBL_Y195] | 0.467 |
| GPIIRYDLGGA [CYP11B1_Y81_F79I] | 0.396 |
| PVGVLYKVKVF [PTS_Y128_YF] | 0.659 |
| RPSELYYSKIG [SMG1_Y2253] | 1.59 |
| QDDTVYMGKVI [DCTN1_Y1244_T1249I] | 0.943 |

Asked: # input sequence: GHGEEYPAAGA [NOTCH3_Y2221] ; wanted: its phosphorylation enrichment
Given back: 0.433

Asked: # input sequence: IGCHAYGDQYR [IDH1_Y135_R132C] ; wanted: its phosphorylation enrichment
Given back: 0.569

Asked: # input sequence: YCRHNYGVGES [HLA-DRB1_Y112_V115G] ; wanted: its phosphorylation enrichment
Given back: 0.361

----------
tested on: c-Abl (mouse); experiment: phosphorylation enrichment, bacterial display (enrichment ratio); higher = better substrate or ligand; peptides without Tyr show the background
Parameter threshold = 0.8. Response is Satisfied when phosphorylation enrichment meets or exceeds it, else Not satisfied.

| sequence-entry | measured-on | class-name |
| --- | --- | --- |
| NYADPYRQLPY [CTNND2_Y503_Q507P] | c-Abl (mouse) | Satisfied |
| DSDTDYGSGFP [RNASEH2A_Y206_L202S_YF] | c-Abl (mouse) | Not satisfied |
| FSAGTYPRLEE [SYCN_Y108] | c-Abl (mouse) | Not satisfied |
| FEPWVYSFSFE [PRKDC_Y647_YF] | c-Abl (mouse) | Satisfied |
| VDESLYKTHPQ [HK1_Y417_G414E] | c-Abl (mouse) | Satisfied |

Asked: Form field: phosphorylation enrichment at least 0.8? Entry: TTSQPYRCLCS [USH2A_Y534]
Given back: Satisfied

Asked: Form field: phosphorylation enrichment at least 0.8? Entry: IDSTPYRQWYE [RPS8_Y109]
Given back: Not satisfied

----------
molecular target: EPHB2 (UniProt P29323); assay: phosphorylation enrichment, bacterial display (enrichment ratio); higher = better substrate or ligand; peptides without Tyr show the background
Sequence (P29323 whole entry, looked up): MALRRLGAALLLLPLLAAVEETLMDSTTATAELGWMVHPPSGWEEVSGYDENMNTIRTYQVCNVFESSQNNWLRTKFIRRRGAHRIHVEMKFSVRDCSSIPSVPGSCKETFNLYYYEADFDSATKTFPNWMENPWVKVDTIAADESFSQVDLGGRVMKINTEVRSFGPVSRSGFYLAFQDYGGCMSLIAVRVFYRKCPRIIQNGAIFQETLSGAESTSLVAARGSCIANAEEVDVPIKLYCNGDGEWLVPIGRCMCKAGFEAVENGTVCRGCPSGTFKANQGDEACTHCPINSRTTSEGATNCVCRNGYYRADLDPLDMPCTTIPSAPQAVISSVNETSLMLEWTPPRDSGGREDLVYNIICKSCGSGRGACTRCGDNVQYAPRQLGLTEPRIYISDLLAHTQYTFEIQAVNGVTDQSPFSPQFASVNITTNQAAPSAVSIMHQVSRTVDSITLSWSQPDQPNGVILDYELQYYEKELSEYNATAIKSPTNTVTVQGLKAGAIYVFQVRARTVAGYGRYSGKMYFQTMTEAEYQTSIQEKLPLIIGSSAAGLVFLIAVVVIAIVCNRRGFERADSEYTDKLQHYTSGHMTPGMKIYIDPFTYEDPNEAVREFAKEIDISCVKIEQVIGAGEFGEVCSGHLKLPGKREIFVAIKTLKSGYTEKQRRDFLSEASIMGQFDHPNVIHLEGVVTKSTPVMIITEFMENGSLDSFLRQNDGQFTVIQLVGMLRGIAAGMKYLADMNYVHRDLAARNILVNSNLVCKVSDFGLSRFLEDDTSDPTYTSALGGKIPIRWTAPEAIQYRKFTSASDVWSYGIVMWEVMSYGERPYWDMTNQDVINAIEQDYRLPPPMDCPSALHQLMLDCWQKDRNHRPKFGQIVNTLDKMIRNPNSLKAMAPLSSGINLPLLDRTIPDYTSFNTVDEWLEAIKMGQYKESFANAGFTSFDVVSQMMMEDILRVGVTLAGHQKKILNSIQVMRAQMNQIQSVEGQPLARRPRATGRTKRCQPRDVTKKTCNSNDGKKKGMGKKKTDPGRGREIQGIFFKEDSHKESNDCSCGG
Parameter threshold = 0.6. Response is Met when phosphorylation enrichment meets or exceeds it, else Not met.

| sequence-entry | measured-on | class-name |
| --- | --- | --- |
| FADIAYIYRHG [PAH_Y166_N167I] | EPHB2 (UniProt P29323) | Not met |

Asked: Form field: phosphorylation enrichment at least 0.6? Entry: MSRLKYPVSQQ [BTK_Y375_I370M]
Given back: Met

Asked: Form field: phosphorylation enrichment at least 0.6? Entry: PARLEYYENEK [IRS1_Y46]
Given back: Met

Asked: Form field: phosphorylation enrichment at least 0.6? Entry: RGRSTYFWPRP [GAGE12J_Y9_YF]
Given back: Met

Asked: Form field: phosphorylation enrichment at least 0.6? Entry: NESVDYRATFP [MET_Y1003]
Given back: Not met

Asked: Form field: phosphorylation enrichment at least 0.6? Entry: PEVRRHVLPLN [RPE65_Y368_Y368H]
Given back: Met

----------
target: c-Src SH2; assay: SH2 binding enrichment of the phosphorylated peptide, bacterial display (enrichment ratio); higher = better substrate or ligand; peptides without Tyr show the background
Let's look at some sequences and their measured SH2 binding enrichment.

Study these solved cases before continuing.
| sequence-entry | SH2 binding enrichment |
| --- | --- |
| SEQNNYSRVAN [CWC22_Y797_R794Q] | 1.66 |
| SHLLRYLSWTV [CLCNKB_Y93] | 0.553 |
| KEGSAYGSQSV [NFKB2_Y868_D865G] | 0.447 |
| GGTPLYRDRQG [AGXT_Y194_M195R] | 0.389 |

Note: attention shifts to another entry.
Asked: Look up SH2 binding enrichment with c-Src SH2 for this sequence: ANFAKYGNPNE [BCHE_Y505]
Given back: 0.382

----------
target: Fyn (UniProt P06241); test: phosphorylation enrichment, bacterial display (enrichment ratio); higher = better substrate or ligand; peptides without Tyr show the background
Sequence (P06241 whole entry, looked up): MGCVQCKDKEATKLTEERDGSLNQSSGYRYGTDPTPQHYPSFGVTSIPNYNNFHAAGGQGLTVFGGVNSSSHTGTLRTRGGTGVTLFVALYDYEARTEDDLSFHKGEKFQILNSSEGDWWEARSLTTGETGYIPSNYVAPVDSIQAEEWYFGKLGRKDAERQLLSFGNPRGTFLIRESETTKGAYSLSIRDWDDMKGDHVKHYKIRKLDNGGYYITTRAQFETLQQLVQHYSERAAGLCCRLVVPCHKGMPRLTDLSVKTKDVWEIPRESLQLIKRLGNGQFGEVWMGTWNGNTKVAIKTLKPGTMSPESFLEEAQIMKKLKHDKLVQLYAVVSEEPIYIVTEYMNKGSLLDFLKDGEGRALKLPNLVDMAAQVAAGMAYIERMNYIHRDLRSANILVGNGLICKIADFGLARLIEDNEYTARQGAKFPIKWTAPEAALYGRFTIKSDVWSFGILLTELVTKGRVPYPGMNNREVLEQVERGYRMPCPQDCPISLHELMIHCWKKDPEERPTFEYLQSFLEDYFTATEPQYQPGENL
Let's look at some sequences and their measured phosphorylation enrichment.
Reply briefly: the number, and no unit.

| sequence-entry | phosphorylation enrichment |
| --- | --- |
| FASVEYQEALS [GALNS_Y461_A459V] | 0.615 |
| IDSTPYRQWYE [RPS8_Y109] | 0.492 |
| FLAVGYHQPHI [IDS_Y225_K227Q] | 0.418 |

Asked: # input sequence: NNKKDYYDMYE [SLC26A3_Y526_K521N] ; wanted: its phosphorylation enrichment
Given back: 0.792

Asked: # input sequence: ELANYYKLHHI [AK7_Y391] ; wanted: its phosphorylation enrichment
Given back: 0.566

Asked: # input sequence: DRLASYQDKVR [KRT12_Y139_L140Q] ; wanted: its phosphorylation enrichment
Given back: 0.361

Asked: # input sequence: EPGNLYIAKVE [CNTN4_Y180_T176P] ; wanted: its phosphorylation enrichment
Given back: 0.386

Asked: # input sequence: NYADPYRQLPY [CTNND2_Y503_Q507P] ; wanted: its phosphorylation enrichment
Given back: 0.501
